# system_under_test: HLA-B*48:01
# experimental_details: IEDB peptide-MHC binding, purified MHC/direct/fluorescence; filed as Kd, often an IC50 or EC50 that approximates it; bounds were set here for any values at or beyond the usual limits of such assays
# assay_context: source organism: Orthohantavirus negraense

[
  {
    "sequence_record": "MSRKLHRYI",
    "Kd": "≥ 20 µM"
  }
]

* * *

# system_under_test: HLA-B*44:03
# experimental_details: IEDB peptide-MHC binding, purified MHC/competitive/radioactivity; filed as Kd, often an IC50 or EC50 that approximates it; bounds were set here for any values at or beyond the usual limits of such assays
# assay_context: source organism: Dengue virus 1 Brazil/97-11/1997
pKd: −log10 of the molar value.
// reported pKd for each item listed

[
  {
    "sequence_record": "QQVPFCSHHF",
    "pKd": 6.57
  },
  {
    "sequence_record": "MEHKYSWKS",
    "pKd": 6.00
  },
  {
    "sequence_record": "SEIQLTDYGA",
    "pKd": 7.37
  }
]

* * *

# system_under_test: HLA-A*02:03
# experimental_details: IEDB peptide-MHC binding, purified MHC/competitive/fluorescence; filed as Kd, often an IC50 or EC50 that approximates it; bounds were set here for any values at or beyond the usual limits of such assays
# assay_context: source organism: Escherichia coli str. K-12 substr. DH10B

[
  {
    "sequence_record": "QVIFKCVPK",
    "system_under_test": "HLA-A*02:03",
    "Kd": "≥ 20 µM"
  }
]

* * *

# system_under_test: HLA-B*40:01
# experimental_details: IEDB peptide-MHC binding, purified MHC/direct/fluorescence; filed as Kd, often an IC50 or EC50 that approximates it; bounds were set here for any values at or beyond the usual limits of such assays
# assay_context: source organism: Influenza A virus (A/chicken/Hubei/wk/1997(H5N1))

[
  {
    "sequence_record": "NPALRMKWM",
    "Kd": "≥ 20 µM"
  }
]

* * *

# system_under_test: HLA-A*02:02
# experimental_details: IEDB peptide-MHC binding, purified MHC/competitive/radioactivity; filed as Kd, often an IC50 or EC50 that approximates it; bounds were set here for any values at or beyond the usual limits of such assays
# assay_context: source organism: Vaccinia virus WR
Parameter: Kd. Scope: all listed entries.
endpoint: Kd (nM)

[
  {
    "sequence_record": "IVSRSSRGV",
    "system_under_test": "HLA-A*02:02",
    "unit_tag": "nM",
    "prefix_operator": "=",
    "data_value": 264
  },
  {
    "sequence_record": "GIDTSNNIA",
    "system_under_test": "HLA-A*02:02",
    "unit_tag": "nM",
    "prefix_operator": "≥",
    "data_value": 49700
  },
  {
    "sequence_record": "NVKSKLLWFL",
    "system_under_test": "HLA-A*02:02",
    "unit_tag": "nM",
    "prefix_operator": "=",
    "data_value": 2290
  },
  {
    "sequence_record": "KIDKLTFQI",
    "system_under_test": "HLA-A*02:02",
    "unit_tag": "nM",
    "prefix_operator": "=",
    "data_value": 141
  },
  {
    "sequence_record": "NTLIQYRQQL",
    "system_under_test": "HLA-A*02:02",
    "unit_tag": "nM",
    "prefix_operator": "=",
    "data_value": 6370
  },
  {
    "sequence_record": "PASKKESVI",
    "system_under_test": "HLA-A*02:02",
    "unit_tag": "nM",
    "prefix_operator": "=",
    "data_value": 1350
  },
  {
    "sequence_record": "NMWREILSNT",
    "system_under_test": "HLA-A*02:02",
    "unit_tag": "nM",
    "prefix_operator": "=",
    "data_value": 6060
  },
  {
    "sequence_record": "SIGFEARIV",
    "system_under_test": "HLA-A*02:02",
    "unit_tag": "nM",
    "prefix_operator": "=",
    "data_value": 10100
  },
  {
    "sequence_record": "TLLNETAKVI",
    "system_under_test": "HLA-A*02:02",
    "unit_tag": "nM",
    "prefix_operator": "=",
    "data_value": 2860
  },
  {
    "sequence_record": "FIDRGSIKI",
    "system_under_test": "HLA-A*02:02",
    "unit_tag": "nM",
    "prefix_operator": "=",
    "data_value": 9720
  },
  {
    "sequence_record": "FLPQIGGEA",
    "system_under_test": "HLA-A*02:02",
    "unit_tag": "nM",
    "prefix_operator": "=",
    "data_value": 21.1
  },
  {
    "sequence_record": "SMKGENVFI",
    "system_under_test": "HLA-A*02:02",
    "unit_tag": "nM",
    "prefix_operator": "=",
    "data_value": 5.48
  },
  {
    "sequence_record": "ETDDDGNYPL",
    "system_under_test": "HLA-A*02:02",
    "unit_tag": "nM",
    "prefix_operator": "=",
    "data_value": 3590
  },
  {
    "sequence_record": "SIISLFYTFA",
    "system_under_test": "HLA-A*02:02",
    "unit_tag": "nM",
    "prefix_operator": "=",
    "data_value": 111
  },
  {
    "sequence_record": "IIAVFDSKLI",
    "system_under_test": "HLA-A*02:02",
    "unit_tag": "nM",
    "prefix_operator": "=",
    "data_value": 758
  },
  {
    "sequence_record": "ALCKVTVPT",
    "system_under_test": "HLA-A*02:02",
    "unit_tag": "nM",
    "prefix_operator": "=",
    "data_value": 110
  },
  {
    "sequence_record": "ETVKMGAFM",
    "system_under_test": "HLA-A*02:02",
    "unit_tag": "nM",
    "prefix_operator": "=",
    "data_value": 15000
  },
  {
    "sequence_record": "YMSNLFDIPL",
    "system_under_test": "HLA-A*02:02",
    "unit_tag": "nM",
    "prefix_operator": "=",
    "data_value": 19.2
  },
  {
    "sequence_record": "NIVTFINDYA",
    "system_under_test": "HLA-A*02:02",
    "unit_tag": "nM",
    "prefix_operator": "=",
    "data_value": 61.8
  },
  {
    "sequence_record": "STSPTRTWKV",
    "system_under_test": "HLA-A*02:02",
    "unit_tag": "nM",
    "prefix_operator": "=",
    "data_value": 397
  },
  {
    "sequence_record": "TLLIKTLSPA",
    "system_under_test": "HLA-A*02:02",
    "unit_tag": "nM",
    "prefix_operator": "=",
    "data_value": 1.05
  }
]
